Reference source: ChEMBL document CHEMBL3751715

# System name: Histone deacetylase 2 (Homo sapiens)
# Sequence (Q92769 whole entry): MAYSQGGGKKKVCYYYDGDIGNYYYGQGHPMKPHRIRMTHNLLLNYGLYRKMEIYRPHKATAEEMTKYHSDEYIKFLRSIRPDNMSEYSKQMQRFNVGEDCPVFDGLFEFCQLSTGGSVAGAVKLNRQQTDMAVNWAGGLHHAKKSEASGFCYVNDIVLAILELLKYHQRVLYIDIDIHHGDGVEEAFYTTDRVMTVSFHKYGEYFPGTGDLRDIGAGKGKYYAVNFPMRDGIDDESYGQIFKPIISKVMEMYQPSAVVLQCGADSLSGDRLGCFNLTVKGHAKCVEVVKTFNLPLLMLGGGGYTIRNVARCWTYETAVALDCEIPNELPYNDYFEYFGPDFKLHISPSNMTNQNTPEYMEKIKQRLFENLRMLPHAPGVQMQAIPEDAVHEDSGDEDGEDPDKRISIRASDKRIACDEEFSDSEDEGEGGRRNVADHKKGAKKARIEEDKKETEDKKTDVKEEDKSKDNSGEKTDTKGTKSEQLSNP
Reported property: IC50 (µM)
The reply should contain only the number, in µM.

Record for `O=C(/C=C/c1ccc(C(F)(F)F)cc1)NO` under target or system Histone deacetylase 2 (Homo sapiens): IC50 reported as 6.36

====

# Assay procedure: Half life in human liver microsomes at 1 uM by LC-MS/MS analysis in presence of NADPH
# Assay type: ADME
Reported property: half-life at 1 µM (min)
The reply should contain only the number, in min.

{"columns": ["Smiles notation", "Result units", "half-life at 1 µM"],
 "data": [
  ["O=C(NO)c1sc2ccccc2c1S(=O)(=O)c1ccccc1", "min", 770]
]}

API: the following record is the query input.
Entry under test: `O=C(/C=C/c1ccc(C(F)(F)F)cc1)NO` . Its half-life at 1 µM was 693

====

# System name: UniProt P03956
# Sequence (P03956 whole entry): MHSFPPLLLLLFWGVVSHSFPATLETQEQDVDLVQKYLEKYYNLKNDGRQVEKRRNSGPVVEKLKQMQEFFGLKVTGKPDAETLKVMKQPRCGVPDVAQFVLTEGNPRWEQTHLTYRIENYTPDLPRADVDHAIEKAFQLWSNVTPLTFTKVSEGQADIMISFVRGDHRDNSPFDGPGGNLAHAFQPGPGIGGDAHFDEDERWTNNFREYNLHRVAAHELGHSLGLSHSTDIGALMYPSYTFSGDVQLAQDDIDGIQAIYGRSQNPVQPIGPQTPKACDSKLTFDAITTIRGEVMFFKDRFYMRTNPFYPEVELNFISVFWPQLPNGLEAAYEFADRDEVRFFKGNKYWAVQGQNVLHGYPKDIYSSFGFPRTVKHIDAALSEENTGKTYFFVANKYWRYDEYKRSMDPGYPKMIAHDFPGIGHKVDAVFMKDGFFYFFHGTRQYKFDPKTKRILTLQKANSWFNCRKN
# Assay procedure: Inhibition of human recombinant MMP1 expressed in Escherichia coli using (5-FAM/QXLTM) FRET peptide as substrate
pIC50: −log10 of the molar value.
Reported property: pIC50

Entry under test: `O=C(/C=C/c1ccc(C(F)(F)F)cc1)NO` . Its pIC50 was < 4.00
